test: UV shielding properties: UV spectra in ethanol
Type: physicochemical
protocol_conditions: UV spectrum in ethanol
parameter_measured: A^1%1 cm at absorption maximum

* COCCOCCOC(=O)/C(C#N)=C/C=C/N1CCCCC1 [Compound 5] | 2252
* COCCOC(=O)/C(C#N)=C/C=C/N(CCOC)CCOC [Compound 2] | 2046
* CC(C)COC(=O)/C(C#N)=C1\C=C(NCC(C)O)CCC1 (stereo not shown) [Compound 17] | 2083

a. COCCCNC(=O)/C(C#N)=C1\C=C(NCCCOC)CCC1 [Compound 15]
b. CCOCCOC(=O)/C(C#N)=C/C=C/N1CCCCC1 [Compound 4]
Consider a and b . Which of these has its A^1%1 cm at absorption maximum at a higher number? Could you answer with the label of the item you picked?
b
(b: 2568, a: 1644)

* * *

test: UV shielding properties: UV spectra in ethanol
Type: physicochemical
Design: unit not given here
protocol_conditions: UV spectrum in ethanol
Description: The UV shielding properties of the merocyanine derivatives are investigated by measuring their UV spectra in ethanol. In the following table the investigated absorption maxima (Amax) together with the corresponding A^1%1cm values are listed.
parameter_measured: Absorption maximum λmax

• CC(C)COC(=O)/C(C#N)=C1\C=C(NCC(C)O)CCC1 (stereo not drawn) = 385
• CCOC(=O)/C(C#N)=C1\C=C(NCCCOC)CCC1 = 385
• COCCCNC(=O)/C(C#N)=C1\C=C(NCCCOC)CCC1 = 385
• CCOC(=O)/C(C#N)=C/C=C/N(CCOC)CCOC = 380
• COCCOC(=O)/C(C#N)=C/C=C/N(CCOC)CCOC = 380
• COCCOCCOC(=O)/C(C#N)=C/C=C/N1CCCCC1 = 381

* * *

test: UV shielding properties: UV spectra in ethanol
Format: physicochemical
protocol_conditions: UV spectrum in ethanol
parameter_measured: A^1%1 cm at absorption maximum

- CCCCC(CC)CNC1=C/C(=C(/C#N)C(=O)NCCO)CCC1 (centres unmarked): 1618
- N#C/C(=C\C=C\N1CCCCC1)C(=O)NCCO: 2530
- CCCCCCCCOC(=O)/C(C#N)=C/C=C/N(CC)CCO: 2036
- CCOC(=O)/C(C#N)=C1\C=C(NCCCOC)CCC1: 2207
- CCCN(/C=C/C=C(\C#N)C(=O)OCC(O)CO)CCC (centres unmarked): 2230
- N#C/C(=C\C=C\N1CCOCC1)C(=O)OCC(O)CO (centres unmarked): 2414
- N#C/C(=C\C=C\N1CCCCC1)C(=O)OCC(O)CO (centres unmarked): 2467
- CCOCCOC(=O)/C(C#N)=C/C=C/N(CCOC)CCOC: 1965
- CCOCCOC(=O)/C(C#N)=C1\C=C(NCCCOC)CCC1: 1947
- CCCCOC(=O)/C(C#N)=C/C=C/N(CCO)CCCC: 2235
- CCOC(=O)/C(C#N)=C/C=C/N(CCOC)CCOC: 2283
